Test system: Plasmodium falciparum Sir2 (PF13_0152, Sir2A)
Assay: Plasmodium falciparum Sir2A binding compounds – biochemical, small-molecule microarray, 635 nm fluorescence, primary screen (AID 1098);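 also: score merges spot fluorescence intensity with its signal-to-noise ratio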
Settings: fluorescence 635 nm, higher = more signal
Assay metric: composite z-score

compound_structure=COc1ccc(C#Cc2ccc3c(c2)[C@]2(C(=O)N3)[C@H](C(=O)N3CCN(c4ncccn4)CC3)[C@H]3C(=O)O[C@H](c4ccccc4)[C@H](c4ccccc4)N3[C@@H]2c2ccc(O)cc2)cc1 assay_result=0.707
compound_structure=Cc1ccc([C@H]2C(C(=O)O)=C[C@@H](C(C)C)N2S(=O)(=O)c2ccc(C)cc2)cc1 assay_result=0.853
compound_structure=COCCOC(=O)N1C(=O)[C@@]2(c3cc(C#Cc4ccc(OC)cc4)ccc31)[C@H](c1ccc(O)cc1)N1[C@H](c3ccccc3)[C@H](c3ccccc3)OC(=O)[C@H]1[C@@H]2C(=O)N1CCN(c2ncccn2)CC1 assay_result=0.408
